Biological target: Torsin-1A-interacting protein 1 (Homo sapiens)
Test: compound microarray binding of lysate hLAP1 – cell lysate, small-molecule microarray, COS7 lysate, 635/667 nm fluorescence, primary screen (AID 1116)
Details: 635 nm fluorescence, higher = more signal
List of composite z-score values.
Observable: composite z-score

[
  {
    "Compound": "CCOC(=O)C[C@H]1[C@H](OC(=O)c2ccc(C(=O)c3ccccc3)cc2)[C@@H](NC(=O)CC(C)C)c2cc(OCCCO)ccc2N1C(=O)c1ccccc1",
    "Test System": "Torsin-1A-interacting protein 1 (Homo sapiens)",
    "Observable": "composite z-score",
    "Recorded Result": 0.537
  },
  {
    "Compound": "CCOC(=O)C[C@H]1[C@H](OC(=O)Cc2ccc3c(c2)OCO3)[C@@H](NC(=O)c2ccc3ccccc3n2)c2cc(OCCCO)ccc2N1C(=O)c1ccccc1",
    "Test System": "Torsin-1A-interacting protein 1 (Homo sapiens)",
    "Observable": "composite z-score",
    "Recorded Result": 0.49
  },
  {
    "Compound": "O=C1N(Cc2ccccc2)c2ccccc2C[C@]12N=C(c1ccc(OCCCO)cc1)O[C@@H]2c1ccccc1",
    "Test System": "Torsin-1A-interacting protein 1 (Homo sapiens)",
    "Observable": "composite z-score",
    "Recorded Result": -0.0883
  },
  {
    "Compound": "COCCOC(=O)N1C(=O)[C@@]2(c3cc(C#CC4=CCCCC4)ccc31)[C@H](c1ccccc1OCCO)N1[C@H](c3ccccc3)[C@H](c3ccccc3)OC(=O)[C@H]1[C@@H]2C(=O)N1CCN(c2ncccn2)CC1",
    "Test System": "Torsin-1A-interacting protein 1 (Homo sapiens)",
    "Observable": "composite z-score",
    "Recorded Result": 0.0174
  },
  {
    "Compound": "COc1cc2c(cc1O)C(C1CC1)N(C)CC2 (stereo not drawn)",
    "Test System": "Torsin-1A-interacting protein 1 (Homo sapiens)",
    "Observable": "composite z-score",
    "Recorded Result": -0.431
  },
  {
    "Compound": "C=CCC(OC(C)=O)[C@@H]1[C@@H](N(Cc2cc3ccccc3o2)C(=O)Cc2ccc(F)cc2)c2cc(OCCCO)ccc2N1C(=O)Cc1ccc2ccccc2c1 (stereo partly drawn)",
    "Test System": "Torsin-1A-interacting protein 1 (Homo sapiens)",
    "Observable": "composite z-score",
    "Recorded Result": 0.0568
  },
  {
    "Compound": "C=C(COC)C(=O)CC[C@@H](OC(C)=O)c1cccc(OCCO)c1",
    "Test System": "Torsin-1A-interacting protein 1 (Homo sapiens)",
    "Observable": "composite z-score",
    "Recorded Result": 0.578
  },
  {
    "Compound": "COCCOC(=O)N1C(=O)[C@@]2(c3cc(C#CC4(O)CCCCCC4)ccc31)[C@H](C(=O)N1CCc3cc(OC)c(OC)cc3C1)[C@H]1C(=O)O[C@H](c3ccccc3)[C@H](c3ccccc3)N1[C@@H]2c1ccc(OCCO)cc1",
    "Test System": "Torsin-1A-interacting protein 1 (Homo sapiens)",
    "Observable": "composite z-score",
    "Recorded Result": 0.695
  },
  {
    "Compound": "CC(C)N1CC=CC23O[C@@H]4C=CCCOC(=O)C4[C@H]2C(=O)N(CCCO)[C@@H]3C1=O (stereo partly drawn)",
    "Test System": "Torsin-1A-interacting protein 1 (Homo sapiens)",
    "Observable": "composite z-score",
    "Recorded Result": 0.263
  },
  {
    "Compound": "C=CCN1C(=O)[C@]2(CCS(=O)(=O)c3ccccc3)N=C(c3ccc(OCCCO)cc3)O[C@@H]2c2ccccc21",
    "Test System": "Torsin-1A-interacting protein 1 (Homo sapiens)",
    "Observable": "composite z-score",
    "Recorded Result": 1.68
  },
  {
    "Compound": "Oc1ccc2cc[n+](Cc3cc4c(cc3Br)OCO4)cc2c1",
    "Test System": "Torsin-1A-interacting protein 1 (Homo sapiens)",
    "Observable": "composite z-score",
    "Recorded Result": -0.346
  },
  {
    "Compound": "CCCN1C(=O)[C@@]2(Cc3ccccc31)N=C(c1ccc(OCCCO)cc1)O[C@H]2c1ccccc1",
    "Test System": "Torsin-1A-interacting protein 1 (Homo sapiens)",
    "Observable": "composite z-score",
    "Recorded Result": 1.28
  },
  {
    "Compound": "COc1ccc([Si](C)(C)[C@@H]2[C@@H](CC(=O)N3CCC[C@H]3CO)O[C@]3(C(=O)N(Cc4cccc(N5C(=O)COc6ccccc65)c4)c4ccccc43)[C@H]2C)cc1",
    "Test System": "Torsin-1A-interacting protein 1 (Homo sapiens)",
    "Observable": "composite z-score",
    "Recorded Result": 1.41
  },
  {
    "Compound": "CC(C)N1C(=O)C[C@@](C(=O)NC2CC2)(c2ccc([N+](=O)[O-])cc2)[C@H]1c1ccc(CO)cc1",
    "Test System": "Torsin-1A-interacting protein 1 (Homo sapiens)",
    "Observable": "composite z-score",
    "Recorded Result": -0.315
  },
  {
    "Compound": "C=CC[C@@]1(C(=O)NCCCOC)N=C(c2ccc(OCCCO)cc2)O[C@@H]1c1ccccc1N=[N+]=[N-]",
    "Test System": "Torsin-1A-interacting protein 1 (Homo sapiens)",
    "Observable": "composite z-score",
    "Recorded Result": 0.905
  },
  {
    "Compound": "NCCCCCNC(=O)[C@@H]1C[C@@H]2C(=O)N[C@@H](CCCCN)C(=O)N2[C@@H]1c1ccc(O)cc1",
    "Test System": "Torsin-1A-interacting protein 1 (Homo sapiens)",
    "Observable": "composite z-score",
    "Recorded Result": 1.51
  },
  {
    "Compound": "C=CCNC(=O)[C@@H]1[C@H]2C(=O)O[C@H](c3ccccc3)[C@H](c3ccccc3)N2[C@H](c2ccc(O)cc2)[C@@]12C(=O)N(C(=O)OCCOC)c1ccc(C#CC3=CCCCC3)cc12",
    "Test System": "Torsin-1A-interacting protein 1 (Homo sapiens)",
    "Observable": "composite z-score",
    "Recorded Result": 0.319
  },
  {
    "Compound": "COc1ccc([Si](C)(C)[C@@H]2[C@@H](CC(=O)N3Cc4ccccc4C[C@H]3CO)O[C@]3(C(=O)N(Cc4ccc(N5C(=O)c6cccc7cccc5c67)cc4)c4ccccc43)[C@H]2C)cc1",
    "Test System": "Torsin-1A-interacting protein 1 (Homo sapiens)",
    "Observable": "composite z-score",
    "Recorded Result": 1.04
  },
  {
    "Compound": "O=C(O)[C@@H]1[C@@H]2C(=O)N(c3ccccc3)C(=O)[C@@H]2C[C@@H]1Sc1ccccc1",
    "Test System": "Torsin-1A-interacting protein 1 (Homo sapiens)",
    "Observable": "composite z-score",
    "Recorded Result": 0.351
  },
  {
    "Compound": "O=C1C2C=CC(C(O)c3cccc(O)c3)N(Nc3ccc([N+](=O)[O-])cc3)C2C(=O)N1c1ccccc1 (stereo not drawn)",
    "Test System": "Torsin-1A-interacting protein 1 (Homo sapiens)",
    "Observable": "composite z-score",
    "Recorded Result": 0.26
  },
  {
    "Compound": "NC(=O)NCC#Cc1ccc2c(c1)[C@]1(C(=O)N2)[C@H](c2ccccc2OCCO)N2[C@H](c3ccccc3)[C@H](c3ccccc3)OC(=O)[C@H]2[C@@H]1C(=O)O",
    "Test System": "Torsin-1A-interacting protein 1 (Homo sapiens)",
    "Observable": "composite z-score",
    "Recorded Result": 0.299
  },
  {
    "Compound": "O=C(c1ccccc1)N1C(=O)[C@]2(Cc3ccccc31)N=C(c1ccc(OCCCO)cc1)O[C@@H]2c1ccccc1",
    "Test System": "Torsin-1A-interacting protein 1 (Homo sapiens)",
    "Observable": "composite z-score",
    "Recorded Result": 0.688
  },
  {
    "Compound": "N[C@@H](Cc1ccccc1)C(=O)NCc1cn(Cc2ccccc2)nn1",
    "Test System": "Torsin-1A-interacting protein 1 (Homo sapiens)",
    "Observable": "composite z-score",
    "Recorded Result": 0.775
  },
  {
    "Compound": "Cc1ccc(S[C@]2(C(=O)NCC(F)(F)F)CC(=O)N(Cc3cc(C(F)(F)F)cc(C(F)(F)F)c3)[C@@H]2c2ccc(CO)cc2I)cc1",
    "Test System": "Torsin-1A-interacting protein 1 (Homo sapiens)",
    "Observable": "composite z-score",
    "Recorded Result": -0.152
  },
  {
    "Compound": "CCCCCCc1nc(Cc2cc(OC)c(OC)c(OC)c2)cc2c1[Si](C(C)C)(C(C)C)OC2",
    "Test System": "Torsin-1A-interacting protein 1 (Homo sapiens)",
    "Observable": "composite z-score",
    "Recorded Result": -0.136
  },
  {
    "Compound": "CC(C)=C1C(=O)C(c2ccccc2)=C2CN3C(=O)N(CCc4ccccc4)C(=O)[C@]3(Cc3ccc(C(F)(F)F)cc3)[C@H]21",
    "Test System": "Torsin-1A-interacting protein 1 (Homo sapiens)",
    "Observable": "composite z-score",
    "Recorded Result": 0.759
  },
  {
    "Compound": "[N-]=[N+]=Nc1ccccc1C[C@]1(C(=O)NCCN2CCOCC2)COC(c2ccc(OCCCO)cc2)=N1",
    "Test System": "Torsin-1A-interacting protein 1 (Homo sapiens)",
    "Observable": "composite z-score",
    "Recorded Result": 0.101
  },
  {
    "Compound": "CC(C)C(CO)N1C(=O)[C@@H]2C3C(=O)OCCC/C=C\\[C@H]3OC23C=CCN(c2ccc4ccccc4c2)C(=O)[C@@H]13 (stereo partly drawn)",
    "Test System": "Torsin-1A-interacting protein 1 (Homo sapiens)",
    "Observable": "composite z-score",
    "Recorded Result": -0.427
  }
]
